Recorded values, source ChEMBL document CHEMBL4433235.

- Tested on: Streptococcus pneumoniae
- Run description: Antimicrobial activity against Streptococcus pneumoniae
- Assay type: functional
Catalogue of molecules with associated MIC90
Put your answer as a value accompanied by its unit after it.

# example entries with known answers
Cc1nc(NC(=O)[C@@H]2CCCNN2C(=O)[C@H](CC2CCCC2)CN(O)C=O)sc1C: 0.5 µg/mL
Cc1ccc(NC(=O)[C@@H]2CCCNN2C(=O)[C@H](CC2CCCC2)CN(O)C=O)nc1: 2 µg/mL

Next, consider the following molecule.
Given the entry `CCc1nnc(NC(=O)[C@@H]2CCCNN2C(=O)[C@H](CC2CCCC2)CN(O)C=O)s1` , report its measured MIC90.
1 µg/mL

---

- Run description: Chromatographic hydrophobicity index, log D of compound at pH 7.4
- Format: physicochemical
- Applied conditions: buffer
Property: CHI
Just the number, please.

O=CN(O)C[C@@H](CC1CCCC1)C(=O)N1NCCC[C@H]1C(=O)Nc1ccccc1: 4.82
CCCNC(=O)[C@@H]1CCCNN1C(=O)[C@H](CC1CCCC1)CN(O)C=O: 3.19

Next, consider the following molecule.
Given the entry `O=CN(O)C[C@@H](CC1CCCC1)C(=O)N1NCCC[C@H]1C(=O)Nc1cnccn1` , report its measured CHI.
2.87

---

Catalogue of molecules with associated half-life
- Run description: Half life in rat at 5 mg/kg, po
- Type: ADME, organism-based
- Applied conditions: in vivo

# example entries with known answers
CCc1nnc(NC(=O)[C@@H]2CCCNN2C(=O)[C@H](CC2CCCC2)CN(O)C=O)s1: 4.7 h
CN(C)c1cncc(NC(=O)[C@@H]2CCCNN2C(=O)[C@H](CC2CCCC2)CN(O)C=O)n1: 10 h

Next, consider the following molecule.
Given the entry `Cc1nc(NC(=O)[C@@H]2CCCNN2C(=O)[C@H](CC2CCCC2)CN(O)C=O)sc1C` , report its measured half-life.
3.8 h

---

Catalogue of compounds with associated MIC
- System: Streptococcus pneumoniae
- Run description: Antimicrobial activity against Streptococcus pneumoniae 1629
- Format: functional
Give the value in µg/mL but do not write µg/mL after it.

O=CN(O)C[C@@H](CC1CCCC1)C(=O)N1NCCC[C@H]1C(=O)N1CCCCC1: 4
Cc1nc(NNC(=O)[C@H](CC2CCCC2)CN(O)C=O)c(F)c(N2CCN3CCOC[C@@H]3C2)n1: 1
CN1CCN(c2cc(NC(=O)[C@@H]3CCCNN3C(=O)[C@H](CC3CCCC3)CN(O)C=O)ncn2)CC1: 0.25
O=CN(O)C[C@@H](CC1CCCC1)C(=O)N1NCCC[C@H]1C(=O)Nc1ccccc1: 2
CCc1nnc(NC(=O)[C@@H]2CCCNN2C(=O)[C@H](CC2CCCC2)CN(O)C=O)s1: 1

Given the entry `CN(C)c1cccc(NC(=O)[C@@H]2CCCNN2C(=O)[C@H](CC2CCCC2)CN(O)C=O)n1` , report its measured MIC.
0.5

Given the entry `CN(C)c1cc(NC(=O)[C@@H]2CCCNN2C(=O)[C@H](CC2CCCC2)CN(O)C=O)ncn1` , report its measured MIC.
0.5

Given the entry `CN1CCN(c2cncc(NC(=O)[C@@H]3CCCNN3C(=O)[C@H](CC3CCCC3)CN(O)C=O)n2)CC1` , report its measured MIC.
4

Given the entry `O=CN(O)C[C@@H](CC1CCCC1)C(=O)N1NCCC[C@H]1C(=O)Nc1cccc2c1COB2O` , report its measured MIC.
8

Given the entry `Cc1cccnc1NC(=O)[C@@H]1CCCNN1C(=O)[C@H](CC1CCCC1)CN(O)C=O` , report its measured MIC.
8
